In this section, each of the compounds is paired with its reported inhibition at 100 µg/mL.
Test system: Propionibacterium acnes
Assay: Anti-bacterial assay (growth inhibition, MIC/MBC by broth microdilution)
Format: cell-based
Details: Cutibacterium acnes; concentration 100 μg/mL; read-out: Inhibition Rate (P. acnes growth)

compound	unit.info	bound.type	inhibition at 100 µg/mL
CC1(C)CC[C@]2(C(=O)O)CC[C@]3(C)C(=CC[C@@H]4[C@@]5(C)CC[C@H](O)C(C)(C)[C@@H]5CC[C@]43C)[C@@H]2C1 [Compound 2, Oleanolic acid]	%	=	100
C[C@H]1[C@H](C)CC[C@]2(C(=O)O)CC[C@]3(C)C(=CC[C@@H]4[C@@]5(C)C[C@@H](O)[C@H](O)C(C)(C)[C@@H]5CC[C@]43C)[C@H]12 [Compound 8, Corosolic acid]	%	=	106
C[C@@H]1CC[C@]2(C(=O)O)CC[C@]3(C)C(=CC[C@@H]4[C@@]5(C)CC[C@H](O)C(C)(C)[C@@H]5CC[C@]43C)[C@@H]2[C@]1(C)O [Compound 10, Pomolic acid]	%	=	84.4
C[C@@H]1CC[C@]2(C(=O)O)CC[C@]3(C)C(=CC[C@@H]4[C@@]5(C)C[C@@H](O)[C@@H](O)C(C)(C)[C@@H]5CC[C@]43C)[C@@H]2[C@]1(C)O [Compound 12, euscaphic acid]	%	=	98.5
C=C(C)[C@@H]1CC[C@]2(C(=O)O)CC[C@]3(C)[C@H](CC[C@@H]4[C@@]5(C)CC[C@H](O)C(C)(C)[C@@H]5CC[C@]43C)[C@@H]12 [Compound 4, Betulinic acid]	%	<	0
C[C@H]1[C@H](C)CC[C@]2(C(=O)O)CC[C@]3(C)C(=CC[C@@H]4[C@@]5(C)CC[C@H](O)C(C)(C)[C@@H]5CC[C@]43C)[C@H]12 [Compound 1, Ursolic acid]	%	=	110

---

Test system: B16 melanoma cells
Assay: Anti-melanogenesis assay (melanin content)
Type: cell-based, mouse
Conditions: 20 μg/ml, B16 cells
reported.metric: Inhibition rate (100% − melanin synthesis)

molecule	data.value
C[C@@H]1CC[C@]2(C(=O)O)CC[C@]3(C)C(=CC[C@@H]4[C@@]5(C)C[C@@H](O)[C@H](O)C(C)(C)[C@@H]5CC[C@]43C)[C@@H]2[C@]1(C)O [Compound 11, tormentic acid]	73.4 ± 8.0%
C[C@H]1[C@H](C)CC[C@]2(C(=O)O)CC[C@]3(C)C(=CC[C@@H]4[C@@]5(C)C[C@@H](O)[C@@H](O)C(C)(C)[C@@H]5CC[C@]43C)[C@H]12 [Compound 9, 3-epicorosolic acid]	7.8± 0.9%
C[C@@H]1CC[C@]2(C(=O)O)CC[C@]3(C)C(=CC[C@@H]4[C@@]5(C)C[C@@H](O)[C@H](OC(=O)/C=C/c6ccc(O)cc6)C(C)(C)[C@@H]5CC[C@]43C)[C@@H]2[C@]1(C)O (relative stereo) [Compound 17, 3-O-trans-p-coumaroyl tormentic acid]	30.5 ± 6.0%
C[C@@H]1CC[C@]2(C(=O)O)CC[C@]3(C)C(=CC[C@@H]4[C@@]5(C)C[C@@H](O)[C@H](OC(=O)/C=C\c6ccc(O)cc6)C(C)(C)[C@@H]5CC[C@]43C)[C@@H]2[C@]1(C)O (relative stereo) [Compound 18, 3-O-cis-p-coumaroyl tormentic acid]	47.1 ± 6.0%
